# TARGET DESC: human MC4R (Homo sapiens, UniProt P32245)
# Construct: expressed in transfected cells
# Sequence (P32245 whole entry): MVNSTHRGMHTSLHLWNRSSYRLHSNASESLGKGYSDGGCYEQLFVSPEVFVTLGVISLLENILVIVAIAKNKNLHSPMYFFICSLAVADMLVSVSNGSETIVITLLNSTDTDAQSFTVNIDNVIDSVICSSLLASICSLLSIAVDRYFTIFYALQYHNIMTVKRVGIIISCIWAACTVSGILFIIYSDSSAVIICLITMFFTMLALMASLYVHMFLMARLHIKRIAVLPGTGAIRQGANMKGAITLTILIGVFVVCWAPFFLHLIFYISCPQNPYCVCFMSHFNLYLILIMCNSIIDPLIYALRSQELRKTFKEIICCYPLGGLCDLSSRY
# PROCEDURE DETAILS: Functional cAMP assay (CisBio HTRF) in BHK cells expressing human MC4R
# Format: cell-based
# CONDITION SUMMARY: MC1R cAMP EC50 divided by MC4R cAMP EC50
Starred links: 1 amine or outer side, 2 acyl side, 3 side chain; linkers in the order of their positions; H or OH if unused. Positions of bridges follow the written chain, without caps; N, C: chain ends. Non-standard residues stand in square brackets, D forms with d. Residues, ends and D or L forms follow the SMILES beside them. Phe(4-CN) = N#Cc1ccc(C[C@H](N)C(=O)O)cc1; Ser(ΨH,HPro) = O=C(O)[C@@H]1COCN1; Hyp = O=C(O)[C@@H]1C[C@@H](O)CN1; Cit = NC(=O)NCCC[C@H](N)C(=O)O; Thz = O=C(O)[C@@H]1CSCN1; Aze = O=C(O)[C@@H]1CCN1; CH2 = C([*:1])[*:2]
Label rule, in plain words: MC1R/MC4R cAMP EC50 ratio of 100 and up is Condition met, under 100 is Condition not met.

Kindly determine if MC1R/MC4R cAMP EC50 ratio recorded for C[C@@H]1NC(=O)[C@@H]2CSSC[C@H](NC(=O)[C@H](Cc3c[nH]c4ccccc34)NC(=O)[C@H](CCCCN)NC(=O)[C@H](CCCCN)NC(=O)[C@H](CCCCN)NC1=O)C(=O)N1CC[C@H]1C(=O)N[C@@H](Cc1c[nH]cn1)C(=O)N[C@H](Cc1ccccc1)C(=O)N[C@@H](Cc1c[nH]cn1)C(=O)N[C@@H](Cc1c[nH]c3ccccc13)C(=O)N2 [Chem. 82] (cyclo(AKKKWC[Aze]H[dF]HWC); disulfide 6-12) is above or exactly 100.
Condition met

Kindly determine if MC1R/MC4R cAMP EC50 ratio recorded for C[C@@H]1NC(=O)[C@@H]2CSSC[C@H](NC(=O)[C@H](Cc3ccc(C#N)cc3)NC(=O)[C@H](CCCNC(=N)N)NC(=O)[C@@H](Cc3ccccc3)NC(=O)[C@H](Cc3c[nH]cn3)NC1=O)C(=O)N[C@@H](C)C(=O)N[C@@H](CCCCN)C(=O)N[C@@H](CCCCN)C(=O)N[C@@H](CCCCN)C(=O)N[C@@H](Cc1c[nH]c3ccccc13)C(=O)N2 [Chem. 65] (cyclo(AH[dF]R[Phe(4-CN)]CAKKKWC); disulfide 6-12) is above or exactly 100.
Condition not met

Kindly determine if MC1R/MC4R cAMP EC50 ratio recorded for C[C@@H]1NC(=O)[C@H](CCCCN)NC(=O)[C@@H]2CSSC[C@H](NC(=O)[C@H](Cc3c[nH]c4ccccc34)NC(=O)[C@H](C)NC(=O)[C@@H](CCCCN)NC1=O)C(=O)N1CSC[C@H]1C(=O)N[C@@H](Cc1c[nH]cn1)C(=O)N[C@H](Cc1ccccc1)C(=O)N[C@@H](Cc1c[nH]cn1)C(=O)N[C@@H](Cc1c[nH]c3ccccc13)C(=O)N2 [Chem. 114] (cyclo(AWC[Thz]H[dF]HWCKA[dK]); disulfide 3-9) is above or exactly 100.
Condition met

Kindly determine if MC1R/MC4R cAMP EC50 ratio recorded for C[C@@H]1NC(=O)[C@@H]2CSSC[C@H](NC(=O)[C@H](Cc3c[nH]c4ccccc34)NC(=O)[C@H](CCCCN)NC(=O)[C@H](CCCCN)NC(=O)[C@H](CCCCN)NC1=O)C(=O)N1COC[C@H]1C(=O)N[C@@H](Cc1c[nH]cn1)C(=O)N[C@H](Cc1ccccc1)C(=O)N[C@@H](Cc1c[nH]cn1)C(=O)N[C@@H](Cc1c[nH]c3ccccc13)C(=O)N2 [Chem. 103] (cyclo(AKKKWC[Ser(ΨH,HPro)]H[dF]HWC); disulfide 6-12) is above or exactly 100.
Condition met

Kindly determine if MC1R/MC4R cAMP EC50 ratio recorded for N=C(N)NCCC[C@@H]1NC(=O)[C@@H](Cc2ccccc2)NC(=O)[C@@H]2C[C@@H](O)CN2C(=O)[C@@H]2CSCSC[C@H](NC(=O)[C@H](Cc3c[nH]c4ccccc34)NC1=O)C(=O)N1C[C@H](O)C[C@H]1C(=O)N[C@H](Cc1ccccc1)C(=O)N[C@@H](CCCNC(=N)N)C(=O)N[C@@H](Cc1c[nH]c3ccccc13)C(=O)N2 [Chem. 26] (cyclo(C[Hyp][dF]RWC[Hyp][dF]RW); linker 1-6 via CH2) is above or exactly 100.
Condition not met

Kindly determine if MC1R/MC4R cAMP EC50 ratio recorded for N=C(N)NCCC[C@@H]1NC(=O)[C@@H]2CSSC[C@H](NC(=O)[C@H](Cc3c[nH]c4ccccc34)NC(=O)[C@H](CCCNC(N)=O)NC(=O)[C@@H](Cc3ccccc3)NC(=O)[C@H](Cc3c[nH]cn3)NC1=O)C(=O)N[C@@H](CCCNC(=N)N)C(=O)N[C@@H](Cc1c[nH]cn1)C(=O)N[C@H](Cc1ccccc1)C(=O)N[C@@H](CCCNC(N)=O)C(=O)N[C@@H](Cc1c[nH]c3ccccc13)C(=O)N2 [Chem. 54] (cyclo(CRH[dF][Cit]WCRH[dF][Cit]W); disulfide 1-7) is above or exactly 100.
Condition not met

Kindly determine if MC1R/MC4R cAMP EC50 ratio recorded for N=C(N)NCCC[C@@H]1NC(=O)[C@@H](Cc2ccccc2)NC(=O)[C@@H]2C[C@@H](O)CN2C(=O)[C@@H]2CSSC[C@H](NC(=O)[C@H](Cc3c[nH]c4ccccc34)NC1=O)C(=O)N1C[C@H](O)C[C@H]1C(=O)N[C@H](Cc1ccccc1)C(=O)N[C@@H](CCCNC(=N)N)C(=O)N[C@@H](Cc1c[nH]c3ccccc13)C(=O)N2 [Chem. 27] (cyclo(C[Hyp][dF]RWC[Hyp][dF]RW); disulfide 1-6) is above or exactly 100.
Condition met
